- experimental.protocol: Inhibition of HSP70 by fluorescence polarization assay
pKi: −log10 of the molar value.
measurement.kind: pKi

smiles.code | measurement.kind | readout.value
COC[C@H]1O[C@@H](n2c(NCc3ccc(Cl)c(Cl)c3)nc3c(N)ncnc32)[C@H](O)[C@@H]1O | pKi | 5.84
Nc1ncnc2c1nc(NCc1ccc3ncccc3c1)n2[C@@H]1O[C@H](CO)[C@@H](O)[C@H]1O | pKi | 5.89
Nc1ncnc2c1nc(N)n2[C@@H]1O[C@H](CO)[C@@H](O)[C@H]1O | pKi | 5.35
CNc1nc2c(N)ncnc2n1[C@@H]1O[C@H](COCc2ccccc2)[C@@H](O)[C@H]1O | pKi | 5.96
Nc1ncnc2c1nc(NCc1ccc3ccccc3n1)n2[C@@H]1O[C@H](CO)[C@@H](O)[C@H]1O | pKi | 5.36

[P] CNc1nc2c(N)ncnc2n1[C@@H]1O[C@H](COCC2CCCCC2)[C@@H](O)[C@H]1O
[Q] CNc1nc2c(N)ncnc2n1[C@@H]1O[C@H](COCc2cccnc2)[C@@H](O)[C@H]1O
[R] Nc1ncnc2c1nc(NCc1ccc(Cl)c(Cl)c1)n2[C@@H]1O[C@H](COCc2ccccc2)[C@@H](O)[C@H]1O
[S] CNc1nc2c(N)ncnc2n1[C@@H]1O[C@H](CO)[C@@H](O)[C@H]1O
Arrange the 4 entries by pKi so the values rise. Give me the labels in the order the question wants.
S, P, R, Q
(S: 5.08, P: 5.39, R: 5.98, Q: 6.35)

* * *

- experimental.protocol: Inhibition of HSP70 by fluorescence polarization assay
measurement.kind: Ki (nM)

compound | Ki (nM)
Nc1ncnc2c1ncn2[C@@H]1O[C@H](COP(=O)(O)OP(=O)(O)O)[C@@H](O)[C@H]1O [ADENOSINE DIPHOSPHATE] | 110

[1] N#Cc1ccc(COC[C@H]2O[C@@H](n3c(NCc4ccc5ncccc5c4)nc4c(N)ncnc43)[C@H](O)[C@@H]2O)cc1
[2] N#Cc1ccc(COC[C@H]2O[C@@H](n3c(NCc4ccc(Cl)c(Cl)c4)nc4c(N)ncnc43)[C@H](O)[C@@H]2O)cc1
[3] Nc1ncnc2c1nc(NCc1ccc(Cl)c(Cl)c1)n2[C@@H]1O[C@H](CO)[C@@H](O)[C@H]1O
Order the records so the highest Ki appears first and the lowest last. Give me the labels in the order the question wants.
3, 1, 2
